system: Torsin-1A (Homo sapiens)
procedure details: torsin A binders from cell lysate, primary screen, small-molecule microarray, wild-type, 635/667 nm (AID 1149)
recorded conditions: COS7 hTOR1A-WT lysate, 635 nm fluorescence, higher = more signal
I'd appreciate it if you could supply composite z-score values for the items below.
Numbers only.

Sample answers from the record:
CCCCC#C[C@@H]1C=C[C@H](Oc2cc(OC)c(OC)c(OC)c2)[C@@H](COC(=O)OCC)O1 :: -0.0251
COC(=O)CC=C[C@@H](C)[C@@H](C=NOC[C@H]1O[C@H](c2ccccc2)C=C[C@@H]1Oc1ccc(OC)cc1)OC :: -0.52

Respectfully, I request composite z-score for each entry included below.
1. CCOC(=O)NN=C1C[C@@H](O)[C@@H](O)[C@@H]2[C@@H]3C(=O)N(c4cccc(Oc5ccccc5)c4)C(=O)[C@@H]3CC[C@@H]12
2. COC(=O)CC=C[C@H](C)[C@@H](OCc1cccc(Br)c1)[C@@H](C)[C@H](OC)C1CCCCC1
3. CCOC(=O)[C@H](CC(C)C)NC(=O)CCC1CC(OC(=O)NCCc2ccc(F)cc2)CC2(CCCC(COC(=O)NCCOc3ccccc3)O2)O1 (stereo partly drawn)
4. COC(=O)CC=C[C@@H](C)[C@@H](C=NOC[C@H]1O[C@H](c2ccccc2)C=C[C@@H]1Oc1ccc(OC)cc1)NS(=O)(=O)c1ccc(C)cc1
5. O=C1C[C@@H](O)[C@@H](O)[C@@H]2[C@@H]3C(=O)N(Cc4ccccc4)C(=O)[C@@H]3CC[C@@H]12
6. C[C@@H](c1ccccc1)N1C(=O)[C@H]2[C@H]3[C@H](O)[C@H](O)CC(=NO[C@@H]4O[C@H](CO)[C@@H](O)[C@H](O)[C@H]4O)[C@H]3CC[C@H]2C1=O
7. CC(=O)OC[C@H]1O[C@H](C#Cc2ccccc2)C=C[C@@H]1OC(C)=O

0.986
0.312
0.0137
-1.46
0.498
0.225
0.398

###

procedure details: fission yeast growth modulation, primary screen, strain 972, OD600, 24 h, no modulator (AID 1090);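 further: basal condition with compound alone and no growth modifier present; test concentration not given here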
recorded conditions: S. pombe 972 growth, higher = more signal, called active from +8 up or from −8 down
measurement label: z-score
Numbers only.

Sample answers from the record:
CCN1C(=O)[C@@H]2[C@H]3C(=CC[C@@H]2C1=O)C1(OCCCO1)[C@H]1O[C@H]1[C@H]3O :: -6.63
COc1ccc(O[C@H]2C=C[C@@H](c3ccccc3)O[C@@H]2COC(=O)CCC(C)=NOC[C@@H](O)[C@H]2O[C@@H]3OC(C)(C)O[C@@H]3[C@H]2O)cc1 :: 0.0839
COc1ccc(O[C@@H]2[C@H](O)CO[C@@H]2C=Cc2ccccc2)cc1 :: -1.51

Respectfully, I request z-score for each entry included below.
1. CCOC(=O)C1=NO[C@]2(C=C(Br)C3(OCCCO3)[C@H]3O[C@H]32)C1
2. CC(CCN1CCCCc2nc(C)c(C)cc21)=NOC[C@@H](C)[C@H](OCc1ccccc1)C(C)C

[-1.06, -5.66]

###

System: Wnt5a (protein binding on small-molecule microarray)
procedure details: Wnt5a binders on small-molecule microarray, primary screen, biophysical, 635/667 nm fluorescence (AID 1142);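 further: fluorescence read at 667 nm with signal to noise per printed feature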
recorded conditions: 635 nm fluorescence, higher = more signal
I'd appreciate it if you could supply composite z-score values for the items below.
Give bare numbers.

Sample answers from the record:
CCOC(=O)[C@H](CC(C)C)NC(=O)CCC1CC(OC(=O)NCc2cccc3ccccc23)CC2(CCCC(COC(=O)NCCOc3ccccc3)O2)O1 (stereo not given in full) :: 0.746
CO[C@@H]1COC(=O)CC=C[C@H](C)[C@H](OC)COC(=O)[C@H](C)NC(=O)CC=C[C@H]1C :: -0.0631
COc1cccc([C@H]2Oc3ccc(OC)cc3C(=NO[C@H](C)c3cn([C@H](CO)Cc4ccccc4)nn3)[C@@H]2O)c1 :: -0.0943
CCOC(=O)[C@H](CC(C)C)NC(=O)CCC1CC(OC(=O)NCc2ccc3c(c2)OCO3)CC2(CCCC(COC(=O)NCc3cccc(C(F)(F)F)c3)O2)O1 (stereo not given in full) :: -0.194
CON=CC[C@@H]1C=C[C@H](OC(C)=O)[C@@H](COC(C)=O)O1 :: 0.474
O=C(NN=C1C[C@@H](O)[C@@H](O)[C@@H]2[C@@H]3C(=O)N(C[C@@H]4CCCO4)C(=O)[C@@H]3CC[C@@H]12)OCc1ccccc1 :: 0.0252

Respectfully, I request composite z-score for each entry included below.
1. CC(C)(C)N1C(=O)[C@H]2[C@H]3[C@H](O)[C@H](O)CC(=O)[C@@H]3CC[C@H]2C1=O
2. CO[C@@H]1COC(=O)[C@H](CCSC)NC(=O)CC=C[C@@H](C)COC(=O)[C@H](C)NC(=O)CC=C[C@H]1C
3. CCOC(=O)[C@H](Cc1ccccc1)NC(=O)CCC1CC(OC(=O)NCCc2ccc(F)cc2)CC2(CCCC(COC(=O)NCc3ccccc3)O2)O1 (stereo not given in full)

1. -0.0326
2. 0.312
3. 0.0738

###

procedure details: A549 lung cancer cell viability effects, profiling panel, resazurin fluorescence, 24 h, PK04 Diversity Set (AID 1171); further: test concentration not given here
recorded conditions: higher = more signal, called active from +8 up or from −8 down
Activity calls are given as the source filed them.
measurement label: z-score

Sample answers from the record:
COC(=O)[C@@H]1CC[C@H](C)[C@@H](c2ccc(C)cc2)N1C(=O)c1ccc(C=NO[C@@H](C)c2cn([C@H](CO)Cc3ccccc3)nn2)cc1 :: -0.392 (inactive)
CO[C@H]1COC(=O)[C@H](C)NC(=O)CC=C[C@@H](C)[C@H](OC)COC(=O)[C@@H](OCc2ccccc2)C=C[C@@H]1C :: 0.703 (inactive)
CC(CCN1CCc2nc(-c3ccccc3)c(-c3ccccc3)cc2C1)=NOC[C@@H](O)COCc1ccco1 :: -0.684 (inactive)
O=C1C[C@@H](O)[C@@H](O)[C@@H]2[C@@H]3C(=O)N(c4cccc(Oc5ccccc5)c4)C(=O)[C@@H]3CC[C@H]12 :: 0.16 (inactive)
COc1cc(O)c(C(=O)C=Cc2ccc3c(c2)OCO3)c(OC)c1 :: 0.0731 (inactive)
CO[C@H]1COC(=O)CC=C[C@@H](C)[C@H](NS(=O)(=O)c2ccc(C)cc2)COC(=O)CCC[C@@H]1C :: 0.478 (inactive)
COC(=O)CC=C[C@@H](C)[C@@H](C=NO[C@H](C)c1cn([C@H](CO)Cc2ccccc2)nn1)OC :: 0.556 (inactive)

Turning to the following molecule.
Which z-score value belongs to CCN1C(=O)[C@H]2[C@H]3[C@H](O)[C@H](O)CC(=NOCC(C)C)[C@@H]3CC[C@H]2C1=O ?
-0.0226 (inactive)

###

system: Albumin (Bos taurus) (UniProt P02769)
Sequence (P02769 whole entry, looked up): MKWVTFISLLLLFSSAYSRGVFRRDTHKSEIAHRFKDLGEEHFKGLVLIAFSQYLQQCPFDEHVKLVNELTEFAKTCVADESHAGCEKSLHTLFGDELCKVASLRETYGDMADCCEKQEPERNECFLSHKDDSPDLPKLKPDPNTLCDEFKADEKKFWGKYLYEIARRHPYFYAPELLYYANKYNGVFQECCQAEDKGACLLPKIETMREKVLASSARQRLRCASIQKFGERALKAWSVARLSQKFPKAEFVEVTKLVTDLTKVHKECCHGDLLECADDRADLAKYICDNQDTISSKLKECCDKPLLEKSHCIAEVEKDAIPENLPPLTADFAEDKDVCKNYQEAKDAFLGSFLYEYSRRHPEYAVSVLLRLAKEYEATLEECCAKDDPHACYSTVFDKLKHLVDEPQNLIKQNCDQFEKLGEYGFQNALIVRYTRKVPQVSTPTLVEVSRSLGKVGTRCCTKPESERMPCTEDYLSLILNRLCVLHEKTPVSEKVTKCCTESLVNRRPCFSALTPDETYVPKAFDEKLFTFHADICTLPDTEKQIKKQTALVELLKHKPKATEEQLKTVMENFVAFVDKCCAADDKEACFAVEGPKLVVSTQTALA
procedure details: bovine serum albumin binders on microarray, profiling panel, artefact control for SMM control protein annotation, biochemical, small-molecule microarray, Alexa647 label, 635/667 nm fluorescence (AID 1118);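 further: score merges 667 nm emission intensity and signal-to-noise per printed compound spot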
recorded conditions: BSA-A647 binding, fluorescence 635 nm, higher = more signal
composite z-score of 0.1 or higher: yes (1). Under 0.1: no (0).

Check out these entries, answers already filled in.
C[C@H]1CC[C@H]2C(=O)O[C@H](COc3ccc(C(C)(C)C)cc3)CN2[C@@H]1c1ccc(Br)cc1 :: yes (1)
CO[C@H]1COC(=O)[C@@H](C)COC(=O)[C@H](C)NC(=O)CC=C[C@H]1C :: no (0)
O=C1C=C[C@@H](O)[C@@H]2[C@@H]3C(=O)N(c4ccc(F)cc4F)C(=O)[C@@H]3CC[C@@H]12 :: yes (1)
CCCCC#C[C@@H]1C=C[C@H](OC(C)=O)[C@@H](COC(C)=O)O1 :: yes (1)
C[C@@H](c1ccccc1)N1C(=O)[C@H]2[C@H]3[C@H](O)[C@H](O)CC(=NO[C@@H]4O[C@H](CO)[C@@H](O)[C@H](O)[C@H]4O)[C@H]3CC[C@H]2C1=O :: no (0)

Given the entry CCOC(=O)[C@H](Cc1ccccc1)NC(=O)CCC1CC(OC(=O)NCc2ccc3c(c2)OCO3)CC2(CCCC(COC(=O)NCCC(C)C)O2)O1 (stereo not given in full) , answer whether its composite z-score meets or surpasses 0.1.
yes (1)

###

procedure details: small-molecule microarray binders of probe aXIP, primary screen, biochemical, NeuroSMM set, 635/667 nm fluorescence (AID 1119);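 further: probe is the protein aXip251-270 applied at 1 µg/mL to compound-printed slides; binding of probe to printed compounds measured as 667 nm fluorescence plus signal to noise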
recorded conditions: higher = more signal, called active from +8 up or from −8 down
measurement label: composite Z-score
Numbers only.

Respectfully, I request composite Z-score for each entry included below.
1. CCO[C@H](c1cc(OC)cc([N+](=O)[O-])c1OC)[C@H](C)C=CCC(=O)OC
2. Cc1cc2c(nc1C)CCCCN2CC(C)ON=C[C@@H](C)[C@H](OCc1ccccc1)C(C)C (stereo partly specified)

1. 0.277
2. -0.77

Respectfully, I request composite Z-score for each entry included below.
1. CO[C@@H]1C=CCC(=O)N2CCC[C@H]2C(=O)OC[C@@H](C)C(=O)OC[C@H]1C
2. CO[C@@H]1COC(=O)[C@@H]2CCCN2C(=O)[C@@H](C)COC(=O)CC=C[C@H]1C
3. COC(=O)CC=C[C@@H](C)[C@@H](C=NO[C@H](C)c1cn([C@H](CO)Cc2ccccc2)nn1)OC
4. C=CC[C@@H]1C=C[C@H](ON=C2[C@H]3CCn4c(=O)n(-c5ccccc5)c(=O)n4[C@H]3[C@H](O)[C@@H]3O[C@H]23)[C@@H](CO)O1
5. O=C(C=Cc1ccc2c(c1)OCO2)c1ccc(F)cc1

[1.36, -0.235, 0.215, -0.227, -0.188]

Respectfully, I request composite Z-score for each entry included below.
1. CC(C)CON=C1C[C@@H](O)[C@@H](O)[C@@H]2[C@@H]3C(=O)N(c4ccc(F)cc4F)C(=O)[C@@H]3CC[C@H]12
2. COc1ccc(O[C@H]2C=C[C@@H](c3ccccc3)O[C@@H]2CON=C(C)CCN2CCc3nc(-c4ccccc4)c(-c4ccccc4)cc3C2)cc1
3. CCOC(=O)NN=C1C[C@@H](O)[C@@H](O)[C@@H]2[C@@H]3C(=O)N(C(C)(C)C)C(=O)[C@@H]3CC[C@H]12
4. C[C@@H](c1ccccc1)N1C(=O)[C@H]2[C@H]3[C@H](O)[C@H](O)CC(=NOCc4ccccc4)[C@H]3CC[C@H]2C1=O
5. CC[C@@H](c1ccccc1)n1c(=O)n2n(c1=O)[C@H]1[C@H](O)[C@@H]3O[C@@H]3C(=O)[C@H]1CC2
6. CON=CC[C@@H]1C=C[C@H](OC(C)=O)[C@@H](COC(C)=O)O1
7. CCCCc1nc2c(c3c1C[C@H](C)OC3)CN(CCOc1ccccc1)CC2

[0.109, -0.508, 0.288, -0.325, 0.214, 1.33, 0.202]

Respectfully, I request composite Z-score for each entry included below.
1. CCOC(=O)CCN1C(=O)[C@H]2[C@H]3[C@H](O)[C@H](O)CC(=NNC(=O)OCc4ccccc4)[C@@H]3CC[C@H]2C1=O
2. CC(C)(C)N1C(=O)[C@H]2[C@H]3[C@H](O)[C@H](O)CC(=O)[C@H]3CC[C@H]2C1=O
3. COC(=O)[C@@H]1CC[C@H](C)[C@@H](c2ccc(C)cc2)N1C(=O)c1ccc(C=NOC[C@@H](C)[C@H](OCc2ccccc2)C(C)C)cc1
4. COC(=O)C=CCCc1coc(C=CCNC(=O)OC)n1
5. COc1cccc([C@H]2Oc3ccc(OC)cc3C(=NO[C@@H]3O[C@H](COC(C)=O)[C@@H](OC(C)=O)[C@H](OC(C)=O)[C@H]3OC(C)=O)[C@@H]2O)c1
6. O=c1n(-c2ccccc2)c(=O)n2n1CC[C@@H]1C(=NOCc3ccccc3)[C@H]3O[C@H]3[C@@H](O)[C@@H]12

0.406
0.403
3.28
0.103
1.25
0.371

All figures here come from PubChem BioAssay.
